Target: Beta-lactamase (Providencia stuartii) (UniProt O69773)
Sequence (O69773 whole entry): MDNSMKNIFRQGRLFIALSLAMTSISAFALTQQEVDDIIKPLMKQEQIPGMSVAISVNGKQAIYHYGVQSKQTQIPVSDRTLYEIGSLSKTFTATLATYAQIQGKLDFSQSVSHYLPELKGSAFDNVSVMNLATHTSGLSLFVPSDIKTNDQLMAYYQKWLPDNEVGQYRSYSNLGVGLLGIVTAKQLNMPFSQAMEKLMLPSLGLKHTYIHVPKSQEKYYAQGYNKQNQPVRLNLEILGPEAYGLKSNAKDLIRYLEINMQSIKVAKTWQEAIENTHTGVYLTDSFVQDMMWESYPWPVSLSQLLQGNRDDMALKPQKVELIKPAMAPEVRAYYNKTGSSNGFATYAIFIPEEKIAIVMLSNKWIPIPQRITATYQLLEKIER
Assay: Ratio of Kcat to Km of Providencia stuartii AmpC assessed as drug hydrolysis by spectrophotometry relative to cephaloridine
Set-up: scale not given: the % may be the effect or the level left
REPORTED_ENDPOINT: Activity (%)
Report only the number, with the unit % understood.

Prompt: GET /values?readout=Activity&item= `CC1(C)S[C@@H]2[C@H](NC(=O)Cc3ccccc3)C(=O)N2[C@H]1C(=O)O`
Response: 43

Prompt: GET /values?readout=Activity&item= `Nc1nc(/C(=N/O)C(=O)N[C@@H]2C(=O)N3C(C(=O)O)=C(/C=C4\CCN([C@@H]5CCNC5)C4=O)CS[C@H]23)ns1`
Response: 0.11

Prompt: GET /values?readout=Activity&item= `CO/N=C(\C(=O)N[C@@H]1C(=O)N2C(C(=O)[O-])=C(C[N+]3(C)CCCC3)CS[C@H]12)c1csc(N)n1`
Response: 0.66

Prompt: GET /values?readout=Activity&item= `CC(C)(O/N=C(\C(=O)N[C@@H]1C(=O)N2C(C(=O)[O-])=C(C[n+]3ccccc3)CS[C@H]12)c1csc(N)n1)C(=O)O`
Response: 1.3

====

Biological target: Beta-lactamase (Staphylococcus aureus) (UniProt P00807)
Sequence (P00807 whole entry): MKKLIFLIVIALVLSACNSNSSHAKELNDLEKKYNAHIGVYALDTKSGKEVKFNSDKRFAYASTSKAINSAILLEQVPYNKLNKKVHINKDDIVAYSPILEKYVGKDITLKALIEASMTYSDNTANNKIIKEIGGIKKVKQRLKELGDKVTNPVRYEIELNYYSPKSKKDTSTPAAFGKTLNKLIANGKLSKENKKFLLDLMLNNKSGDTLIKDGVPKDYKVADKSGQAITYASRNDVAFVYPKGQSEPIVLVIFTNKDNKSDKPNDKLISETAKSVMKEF
Assay: Activity of Staphylococcus aureus betalactamase PC1 assessed as drug hydrolysis by spectrophotometry relative to cephaloridine
Design: scale not given: the % may be the effect or the level left
REPORTED_ENDPOINT: Activity (%)
Report only the number, with the unit % understood.

Prompt: GET /values?readout=Activity&item= `CO/N=C(\C(=O)N[C@@H]1C(=O)N2C(C(=O)[O-])=C(C[N+]3(C)CCCC3)CS[C@H]12)c1csc(N)n1`
Response: 1.4

Prompt: GET /values?readout=Activity&item= `CC1(C)S[C@@H]2[C@H](NC(=O)Cc3ccccc3)C(=O)N2[C@H]1C(=O)O`
Response: 46000

Prompt: GET /values?readout=Activity&item= `CC(C)(O/N=C(\C(=O)N[C@@H]1C(=O)N2C(C(=O)[O-])=C(C[n+]3ccccc3)CS[C@H]12)c1csc(N)n1)C(=O)O`
Response: 0.25

Prompt: GET /values?readout=Activity&item= `Nc1nc(/C(=N/O)C(=O)N[C@@H]2C(=O)N3C(C(=O)O)=C(/C=C4\CCN([C@@H]5CCNC5)C4=O)CS[C@H]23)ns1`
Response: 17

====

Target: Beta-lactamase VIM-2 (Pseudomonas aeruginosa)
Test: Ratio of Kcat to Km of Pseudomonas aeruginosa VIM2 assessed as drug hydrolysis by spectrophotometry relative to cephaloridine
Parameters: scale not given: the % may be the effect or the level left
REPORTED_ENDPOINT: Activity (%)
Report only the number, with the unit % understood.

Prompt: Item `CC1(C)S[C@@H]2[C@H](NC(=O)Cc3ccccc3)C(=O)N2[C@H]1C(=O)O` with Beta-lactamase VIM-2 (Pseudomonas aeruginosa) - Activity?
Response: 570

Prompt: Item `CO/N=C(\C(=O)N[C@@H]1C(=O)N2C(C(=O)[O-])=C(C[N+]3(C)CCCC3)CS[C@H]12)c1csc(N)n1` with Beta-lactamase VIM-2 (Pseudomonas aeruginosa) - Activity?
Response: 4.1

Prompt: Item `CC(C)(O/N=C(\C(=O)N[C@@H]1C(=O)N2C(C(=O)[O-])=C(C[n+]3ccccc3)CS[C@H]12)c1csc(N)n1)C(=O)O` with Beta-lactamase VIM-2 (Pseudomonas aeruginosa) - Activity?
Response: 1.7

Prompt: Item `Nc1nc(/C(=N/O)C(=O)N[C@@H]2C(=O)N3C(C(=O)O)=C(/C=C4\CCN([C@@H]5CCNC5)C4=O)CS[C@H]23)ns1` with Beta-lactamase VIM-2 (Pseudomonas aeruginosa) - Activity?
Response: 380
